The measurements presented in this section are drawn from the RNAGym collection of RNA variant scans (doi:10.1073/pnas.2313332121).

B1: TPR t1 (parent)
chain: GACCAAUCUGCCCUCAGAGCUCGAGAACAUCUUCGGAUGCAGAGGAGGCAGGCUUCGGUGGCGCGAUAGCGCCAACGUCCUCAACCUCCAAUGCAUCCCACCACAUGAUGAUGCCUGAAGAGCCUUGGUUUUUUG

# Variants of: B1
# procedure-summary: polymerase ribozyme fitness, log enrichment relative to wild type (log ratio); higher = more active; in vitro selection for triplet polymerase activity
readout-label: polymerase ribozyme fitness (log ratio)
Numbers only.

Examples with their reported polymerase ribozyme fitness (log ratio) follow.
{"columns": ["variant-code", "quantitative-result"],
 "data": [
  ["C73G G120C", 0.461],
  ["A5G G51A C86G", -2.82],
  ["G19A G60C A75U A90C C98U C114A", -3.78]
]}

Fill in polymerase ribozyme fitness (log ratio) for each of the 2 variants listed.
1. A18U C40G C114A
2. G17C C28U G61U C85A G110A G120C

Reply:
[-3.02, -1.25]
